Data credit: the kinase profiling compilation of Christmann-Franck et al. (2016)

Known kinase still bound, per cent of control of a selection of molecules
- tgt: CAMK2B (human)
- protocolDetails: KINOMEscan competition binding
- conditionLabel: compound 10.0 µM
Just the number please, in %, no unit attached.

Worked set:
O=C1NC(=S)S/C1=C\c1ccc(-c2cncc3ccccc23)o1 ... 22
COc1cc(N2CCN(C)CC2)ccc1Nc1ncc2c(n1)N(C(C)C)c1ccccc1C(=O)N2 ... 21

Now examine the next entry.
QUERY: # lookup: kinase still bound, per cent of control of "N=C1NC(=O)/C(=C/c2ccc(-c3cncc4ccccc34)o2)S1"
RESULT: 17

---

- Tested on: KIT (human), P10721 [V559D/V654A]
- Sequence (P10721 whole entry V559D/V654A, looked up): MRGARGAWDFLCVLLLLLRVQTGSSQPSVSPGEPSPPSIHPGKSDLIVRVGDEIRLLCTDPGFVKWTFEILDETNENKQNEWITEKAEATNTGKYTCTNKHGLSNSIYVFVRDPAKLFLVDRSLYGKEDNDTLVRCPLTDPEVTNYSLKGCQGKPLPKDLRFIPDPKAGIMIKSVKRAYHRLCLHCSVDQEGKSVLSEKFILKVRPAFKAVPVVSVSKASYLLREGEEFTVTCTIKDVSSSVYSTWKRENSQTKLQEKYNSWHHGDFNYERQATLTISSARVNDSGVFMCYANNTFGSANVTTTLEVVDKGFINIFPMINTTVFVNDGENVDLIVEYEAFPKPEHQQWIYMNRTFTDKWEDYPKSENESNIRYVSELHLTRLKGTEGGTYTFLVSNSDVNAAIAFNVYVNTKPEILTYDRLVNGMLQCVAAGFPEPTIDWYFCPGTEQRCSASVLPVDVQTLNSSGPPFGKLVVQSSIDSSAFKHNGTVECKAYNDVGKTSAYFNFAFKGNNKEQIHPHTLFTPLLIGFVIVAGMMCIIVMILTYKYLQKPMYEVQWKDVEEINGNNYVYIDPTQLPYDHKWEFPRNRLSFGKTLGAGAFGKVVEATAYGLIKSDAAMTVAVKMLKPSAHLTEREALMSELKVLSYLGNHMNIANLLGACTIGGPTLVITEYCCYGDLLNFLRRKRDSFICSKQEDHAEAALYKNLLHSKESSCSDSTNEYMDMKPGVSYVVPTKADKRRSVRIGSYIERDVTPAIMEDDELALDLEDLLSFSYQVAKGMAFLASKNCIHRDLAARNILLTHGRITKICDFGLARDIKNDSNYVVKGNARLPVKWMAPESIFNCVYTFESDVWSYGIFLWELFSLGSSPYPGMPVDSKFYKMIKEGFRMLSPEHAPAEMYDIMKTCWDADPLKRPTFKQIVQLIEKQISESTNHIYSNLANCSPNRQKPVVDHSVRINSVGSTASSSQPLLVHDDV
- protocolDetails: KINOMEscan competition binding
- conditionLabel: compound 10.0 µM
Known kinase still bound, per cent of control of a selection of molecules
State the result as a value with its unit after it.

COc1cc(N2CCN(C)CC2)ccc1Nc1ncc2c(n1)Nc1ccccc1NC2=O ... 88%
O=C1NC(=S)S/C1=C\c1ccc(-c2cncc3ccccc23)o1 ... 23%
CN1C(=O)[C@H]2CCC[C@H]2N(C2CCCC2)c2nc(Nc3ccc(C(N)=O)cc3)ncc21 ... 4.1%
COc1cc(N2CCC(O)CC2)ccc1Nc1ncc2c(n1)N1CCc3cccc(c31)C(=O)N2C ... 100%
COc1cc(N2CCN(C)CC2)ccc1Nc1ncc2c(n1)N(C)c1sccc1C(=O)N2C ... 91%

QUERY: # lookup: kinase still bound, per cent of control of "COc1cc(N2CCN(C)CC2)ccc1Nc1ncc2c(n1)N(C)c1ccccc1N(C)C2=O"
RESULT: 100%

QUERY: # lookup: kinase still bound, per cent of control of "O=C1NC(=O)/C(=C/c2c[nH]c(=O)c(-c3ccc(N4CCNCC4)nc3)c2)S1"
RESULT: 99%

QUERY: # lookup: kinase still bound, per cent of control of "CN1C(=O)c2ccccc2N(C)c2nc(Nc3ccc(N4CCC(O)CC4)cn3)ncc21"
RESULT: 26%

QUERY: # lookup: kinase still bound, per cent of control of "COc1cc(N2CCN(C)CC2)ccc1Nc1ncc2c(n1)N1CCC[C@H]1CC(=O)N2"
RESULT: 8.4%

---

Known kinase still bound, per cent of control of a selection of compounds
- tgt: WEE2 (human) (UniProt P0C1S8)
- Sequence (P0C1S8 whole entry, looked up): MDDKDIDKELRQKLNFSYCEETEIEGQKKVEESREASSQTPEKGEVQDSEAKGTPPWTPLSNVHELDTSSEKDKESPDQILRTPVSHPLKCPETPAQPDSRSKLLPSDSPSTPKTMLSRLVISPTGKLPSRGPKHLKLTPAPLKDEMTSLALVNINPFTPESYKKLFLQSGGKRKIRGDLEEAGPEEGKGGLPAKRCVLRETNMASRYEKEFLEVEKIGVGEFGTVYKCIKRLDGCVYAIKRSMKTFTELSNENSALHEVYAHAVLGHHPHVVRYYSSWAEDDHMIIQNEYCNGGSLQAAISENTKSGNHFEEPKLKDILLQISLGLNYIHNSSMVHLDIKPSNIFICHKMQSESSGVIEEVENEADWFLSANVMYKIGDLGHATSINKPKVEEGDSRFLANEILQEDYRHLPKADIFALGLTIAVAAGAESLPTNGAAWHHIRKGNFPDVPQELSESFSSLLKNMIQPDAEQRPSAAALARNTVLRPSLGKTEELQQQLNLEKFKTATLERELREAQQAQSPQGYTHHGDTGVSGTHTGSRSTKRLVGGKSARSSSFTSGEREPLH
- protocolDetails: KINOMEscan competition binding
- conditionLabel: compound 10.0 µM
Just the number please, in %, no unit attached.

COc1cc(N2CCN(C)CC2)ccc1Nc1ncc2c(n1)N(C)c1sccc1C(=O)N2C ... 94

Now examine the next entry.
QUERY: # lookup: kinase still bound, per cent of control of "COc1cc(N2CCN(C)CC2)ccc1Nc1ncc2c(n1)N(C)c1ccccc1N(C)C2=O"
RESULT: 100

---

- tgt: PRKCE (human) (UniProt Q02156)
- Sequence (Q02156 whole entry, looked up): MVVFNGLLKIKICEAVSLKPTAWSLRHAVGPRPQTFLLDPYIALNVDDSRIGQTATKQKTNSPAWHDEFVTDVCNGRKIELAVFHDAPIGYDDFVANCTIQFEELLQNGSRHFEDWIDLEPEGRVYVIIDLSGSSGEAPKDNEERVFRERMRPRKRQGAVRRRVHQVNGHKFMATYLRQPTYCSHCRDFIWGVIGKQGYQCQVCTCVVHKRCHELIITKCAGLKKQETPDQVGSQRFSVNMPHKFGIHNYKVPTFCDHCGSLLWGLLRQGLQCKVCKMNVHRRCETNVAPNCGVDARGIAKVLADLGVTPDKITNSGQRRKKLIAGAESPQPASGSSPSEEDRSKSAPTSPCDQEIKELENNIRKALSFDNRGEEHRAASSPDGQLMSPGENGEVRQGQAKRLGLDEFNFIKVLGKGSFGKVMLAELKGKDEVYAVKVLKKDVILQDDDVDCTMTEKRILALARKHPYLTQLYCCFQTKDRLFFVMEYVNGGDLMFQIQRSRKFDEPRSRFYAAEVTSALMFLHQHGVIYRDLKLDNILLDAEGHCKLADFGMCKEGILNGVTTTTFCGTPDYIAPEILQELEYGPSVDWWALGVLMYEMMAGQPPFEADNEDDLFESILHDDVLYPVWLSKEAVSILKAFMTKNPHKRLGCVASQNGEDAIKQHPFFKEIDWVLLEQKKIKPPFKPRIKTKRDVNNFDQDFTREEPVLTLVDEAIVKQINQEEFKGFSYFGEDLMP
- protocolDetails: KINOMEscan competition binding
- conditionLabel: compound 10.0 µM
outcomeMeasure: kinase still bound, per cent of control (%)
Just the number please, in %, no unit attached.

COc1cc(N2CCC(O)CC2)ccc1Nc1ncc2c(n1)N1CCc3cccc(c31)C(=O)N2C ... 91
CN1C(=O)c2ccccc2N(C)c2nc(NS(=O)(=O)c3ccc(N)cc3)ncc21 ... 100
COc1cc(N2CCN(C)CC2)ccc1Nc1ncc2c(n1)Nc1ccccc1NC2=O ... 93
COc1cc(N2CCN(C)CC2)ccc1Nc1ncc2c(n1)N(C)c1ccccc1N(C)C2=O ... 60
CN1CCN(c2ccc(C(=O)Nc3ncc4c(n3)N(C)c3ccccc3C(=O)N4C)cc2)CC1 ... 100

QUERY: Query for PRKCE (human) (UniProt Q02156): what kinase still bound, per cent of control does the record show for "CN1C(=O)c2ccccc2N(C)c2nc(Nc3ccc(N4CCC(O)CC4)cc3)ncc21" ?
RESULT: 99

QUERY: Query for PRKCE (human) (UniProt Q02156): what kinase still bound, per cent of control does the record show for "COc1cc(N2CCN(C)CC2)ccc1Nc1ncc2c(n1)N(C)c1sccc1C(=O)N2C" ?
RESULT: 97

QUERY: Query for PRKCE (human) (UniProt Q02156): what kinase still bound, per cent of control does the record show for "O=C1NC(=O)/C(=C/c2c[nH]c(=O)c(-c3ccc(N4CCNCC4)nc3)c2)S1" ?
RESULT: 56

---

- tgt: MAP4K2 (human) (UniProt Q12851)
- Sequence (Q12851 whole entry, looked up): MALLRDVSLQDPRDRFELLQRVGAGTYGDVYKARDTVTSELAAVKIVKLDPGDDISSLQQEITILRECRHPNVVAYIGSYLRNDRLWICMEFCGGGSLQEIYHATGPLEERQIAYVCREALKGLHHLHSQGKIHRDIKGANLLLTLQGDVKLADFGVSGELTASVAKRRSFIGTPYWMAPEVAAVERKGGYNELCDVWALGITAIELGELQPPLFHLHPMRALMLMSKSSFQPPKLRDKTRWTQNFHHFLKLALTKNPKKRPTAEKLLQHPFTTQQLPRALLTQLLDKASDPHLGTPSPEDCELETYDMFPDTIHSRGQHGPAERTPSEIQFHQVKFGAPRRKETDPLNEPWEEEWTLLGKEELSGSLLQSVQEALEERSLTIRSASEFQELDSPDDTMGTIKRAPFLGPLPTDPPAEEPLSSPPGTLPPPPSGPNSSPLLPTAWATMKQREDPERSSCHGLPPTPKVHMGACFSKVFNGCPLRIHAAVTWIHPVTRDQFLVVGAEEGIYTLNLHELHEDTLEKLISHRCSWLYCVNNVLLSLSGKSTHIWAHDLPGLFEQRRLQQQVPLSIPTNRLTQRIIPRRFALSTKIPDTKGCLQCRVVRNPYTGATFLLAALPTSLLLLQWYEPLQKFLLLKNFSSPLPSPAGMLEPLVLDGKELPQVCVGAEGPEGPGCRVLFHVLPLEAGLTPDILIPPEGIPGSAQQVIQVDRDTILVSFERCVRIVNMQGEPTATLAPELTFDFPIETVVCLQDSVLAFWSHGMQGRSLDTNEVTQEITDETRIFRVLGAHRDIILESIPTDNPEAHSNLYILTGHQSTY
- protocolDetails: KINOMEscan competition binding
- conditionLabel: compound 10.0 µM
Known kinase still bound, per cent of control of a selection of compounds
Just the number please, in %, no unit attached.

CSC1=NC(=O)/C(=C/c2c[nH]c(=O)c(-c3ccc(NS(C)(=O)=O)cc3)c2)S1 ... 7.7
CS(=O)(=O)Nc1ccc(-c2ncc(/C=C3\SC(=N)NC3=O)s2)cc1 ... 29
O=C1NC(=O)/C(=C/c2c[nH]c(=O)c(-c3ccc(N4CCNCC4)nc3)c2)S1 ... 32
N=C1NC(=O)/C(=C/c2ccc(-c3cncc4ccccc34)o2)S1 ... 6.9

QUERY: Query for MAP4K2 (human) (UniProt Q12851): what kinase still bound, per cent of control does the record show for "COc1cc(N2CCC(O)CC2)ccc1Nc1ncc2c(n1)N1CCc3cccc(c31)C(=O)N2C" ?
RESULT: 94

---

- System: FLT3 (human), P36888 [K663Q]
- protocolDetails: KINOMEscan competition binding
- conditionLabel: compound 10.0 µM
outcomeMeasure: kinase still bound, per cent of control
State the result as a value with its unit after it.

COc1cc(N2CCN(C)CC2)ccc1Nc1ncc2c(n1)N(C)c1ccccc1N(C)C2=O ... 92%

Now examine the next entry.
QUERY: # lookup: kinase still bound, per cent of control of "N=C1NC(=O)/C(=C/c2c[nH]c(=O)c(-c3ccc(N4CCNCC4)nc3)c2)S1"
RESULT: 33%

---

- tgt: PRKD2 (human)
- protocolDetails: KINOMEscan competition binding
- conditionLabel: compound 10.0 µM
Entries are sorted into classes by kinase still bound, per cent of control as follows: low range: < 8%; mid range: ≥ 8% and < 30%; high range: ≥ 30%

COc1cc(N2CCN(C)CC2)ccc1Nc1ncc2c(n1)N(C)c1ccccc1C(=O)N2C ... low range
COc1cc(N2CCC(N3CCN(C)CC3)CC2)ccc1Nc1ncc2c(n1)N1CCCC1CC(=O)N2C (centres undefined) ... mid range
COc1cc(N2CCN(C)CC2)ccc1Nc1ncc2c(n1)N(C1CCCC1)C(C)CC(=O)N2C (centres undefined) ... mid range
N=C1NC(=O)/C(=C/c2c[nH]c(=O)c(-c3ccc(N4CCNCC4)nc3)c2)S1 ... low range
COc1cc(N2CCN(C)CC2)ccc1Nc1ncc2c(n1)N(C)c1ccccc1C(=O)N2 ... mid range

QUERY: Band of "COc1cc(N2CCN(C)CC2)ccc1Nc1ncc2c(n1)N(C)c1sccc1C(=O)N2C" ?
RESULT: mid range

QUERY: Band of "CN1C(=O)c2ccccc2N(C)c2nc(Nc3ccc(N4CCC(O)CC4)cc3)ncc21" ?
RESULT: high range

QUERY: Band of "CS(=O)(=O)Nc1ccc(-c2cc(/C=C3\SC(=N)NC3=O)c[nH]c2=O)cc1" ?
RESULT: high range

---

- tgt: CDK15 (human) (UniProt Q96Q40)
- Sequence (Q96Q40 whole entry, looked up): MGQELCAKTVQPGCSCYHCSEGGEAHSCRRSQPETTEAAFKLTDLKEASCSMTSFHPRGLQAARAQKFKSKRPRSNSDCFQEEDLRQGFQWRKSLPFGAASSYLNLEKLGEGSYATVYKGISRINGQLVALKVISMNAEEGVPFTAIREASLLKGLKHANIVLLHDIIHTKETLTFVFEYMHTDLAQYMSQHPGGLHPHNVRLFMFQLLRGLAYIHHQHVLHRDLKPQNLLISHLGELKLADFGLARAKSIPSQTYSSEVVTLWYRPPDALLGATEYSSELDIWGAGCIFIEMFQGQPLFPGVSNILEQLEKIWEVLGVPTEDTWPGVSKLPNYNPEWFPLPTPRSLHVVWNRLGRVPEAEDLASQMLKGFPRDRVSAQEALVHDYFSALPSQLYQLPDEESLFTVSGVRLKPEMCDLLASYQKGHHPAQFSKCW
- protocolDetails: KINOMEscan competition binding
- conditionLabel: compound 10.0 µM
Known kinase still bound, per cent of control of a selection of compounds
State the result as a value with its unit after it.

COc1cc(N2CCN(C)CC2)ccc1Nc1ncc2c(n1)N(C)c1sccc1C(=O)N2C ... 92%
COc1cc(N2CCN(C)CC2)ccc1Nc1ncc2c(n1)Nc1ccccc1NC2=O ... 58%
O=C1NC(=O)/C(=C/c2c[nH]c(=O)c(-c3ccc(N4CCNCC4)nc3)c2)S1 ... 50%
CN1C(=O)c2ccccc2N(C)c2nc(Nc3ccc(N4CCC(O)CC4)cc3)ncc21 ... 100%
N=C1NC(=O)/C(=C/c2ccc(-c3ccc(C(N)=O)cc3O)o2)S1 ... 13%
COc1cc(N2CCN(C)CC2)ccc1Nc1ncc2c(n1)N(C)c1ccccc1N(C)C2=O ... 68%

QUERY: # lookup: kinase still bound, per cent of control of "N=C1NC(=O)/C(=C/c2ccc(-c3ccccc3O)o2)S1"
RESULT: 34%

QUERY: # lookup: kinase still bound, per cent of control of "COc1cc(N2CCC(O)CC2)ccc1Nc1ncc2c(n1)N1CCc3cccc(c31)C(=O)N2C"
RESULT: 99%

QUERY: # lookup: kinase still bound, per cent of control of "N=C1NC(=O)/C(=C/c2ccc(-c3ccc(F)cc3O)o2)S1"
RESULT: 9.4%

QUERY: # lookup: kinase still bound, per cent of control of "CN1CCN(c2ccc(C(=O)Nc3ncc4c(n3)N(C)c3ccccc3C(=O)N4C)cc2)CC1"
RESULT: 88%

QUERY: # lookup: kinase still bound, per cent of control of "CN1C(=O)c2ccccc2N(C)c2nc(NS(=O)(=O)c3ccc(N)cc3)ncc21"
RESULT: 100%
